Organism: Homo sapiens
Experiment: Selectivity ratio of EC50 for human MC4R to EC50 for human MC1R
*1 amine or outer side, *2 acyl side, *3 side chain or, on linkers, in order; H or OH if unused. Where a SMILES comes first, the peptide text is derived from it. Bridges are numbered along the chain shown (N, C = ends). [ ]: non-standard residue; d: D form. X3 = NC(=O)/C(=C(\C(=O)O)[*:2])[*:1]; NMeR = CN[C@@H](CCCNC(=N)N)C(=O)O; Nle = CCCC[C@H](N)C(=O)O; X7 = C(C[*:1])C[*:2]
Answer 0 if Ratio EC50 is under 30, and 1 if it is 30 or more.

Example entries begin here.
[
  {
    "MOLECULE": "CCCC[C@@H]1NC(=O)[C@@H]2CS/C(C(=O)O)=C(/C(N)=O)SC[C@H](NC(=O)[C@H](CCCNC(=N)N)NC(=O)[C@H](CC(=O)O)NC(=O)[C@H](Cc3c[nH]c4ccccc34)NC(=O)[C@H](CCCNC(=N)N)NC(=O)[C@H](Cc3ccccc3)NC(=O)[C@H](Cc3cnc[nH]3)NC(=O)CNC1=O)C(=O)N[C@@H](Cc1cnc[nH]1)C(=O)N[C@@H](Cc1ccccc1)C(=O)N[C@@H](CCCNC(=N)N)C(=O)N[C@@H](Cc1c[nH]c3ccccc13)C(=O)N[C@@H](CCCNC(=N)N)C(=O)N2 (cyclo(CHFRWRC[Nle]GHFRWDR); linker 1-7 via X3)",
    "ASSIGNED_CATEGORY": 0
  },
  {
    "MOLECULE": "CC[C@H](C)[C@@H]1NC(=O)[C@@H]2CCCN2C(=O)[C@H](Cc2c[nH]c3ccccc23)NC(=O)[C@H](CCCNC(=N)N)N(C)C(=O)[C@H](Cc2ccccc2)NC(=O)[C@H](Cc2cnc[nH]2)NC(=O)[C@H]([C@@H](C)O)NC(=O)[C@@H](NC(C)=O)CSSC[C@@H](C(N)=O)NC1=O (Ac-CTHF[NMeR]WPIC-NH2; disulfide 1-9)",
    "ASSIGNED_CATEGORY": 0
  },
  {
    "MOLECULE": "CCCC[C@@H]1NC(=O)[C@@H]2CSCCCSC[C@H](NC(=O)[C@H](CCCNC(=N)N)NC(=O)[C@H](CC(=O)O)NC(=O)[C@H](Cc3c[nH]c4ccccc34)NC(=O)[C@H](CCCNC(=N)N)NC(=O)[C@H](Cc3ccccc3)NC(=O)[C@H](Cc3cnc[nH]3)NC(=O)CNC1=O)C(=O)N[C@@H](Cc1cnc[nH]1)C(=O)N[C@@H](Cc1ccccc1)C(=O)N[C@@H](CCCNC(=N)N)C(=O)N[C@@H](Cc1c[nH]c3ccccc13)C(=O)N[C@@H](CCCNC(=N)N)C(=O)N2 (cyclo(CHFRWRC[Nle]GHFRWDR); linker 1-7 via X7)",
    "ASSIGNED_CATEGORY": 0
  },
  {
    "MOLECULE": "CCCC[C@@H]1NC(=O)[C@@H]2CSC/C(=N/OCC(=O)NCCOCCOCCOCCN=[N+]=[N-])CSC[C@H](NC(=O)[C@H](CCCNC(=N)N)NC(=O)[C@H](CC(=O)O)NC(=O)[C@H](Cc3c[nH]c4ccccc34)NC(=O)[C@H](CCCNC(=N)N)NC(=O)[C@H](Cc3ccccc3)NC(=O)[C@H](Cc3cnc[nH]3)NC(=O)CNC1=O)C(=O)N[C@@H](Cc1cnc[nH]1)C(=O)N[C@@H](Cc1ccccc1)C(=O)N[C@@H](CCCNC(=N)N)C(=O)N[C@@H](Cc1c[nH]c3ccccc13)C(=O)N[C@@H](CCCNC(=N)N)C(=O)N2",
    "ASSIGNED_CATEGORY": 1
  }
]

Ask: Please tell me: is the molecule `CC[C@H](C)[C@@H]1NC(=O)[C@@H]2CCCN2C(=O)[C@H](Cc2c[nH]c3ccccc23)NC(=O)[C@H](CCCNC(=N)N)N(C)C(=O)[C@H](Cc2ccccc2)NC(=O)[C@H](Cc2cnc[nH]2)NC(=O)[C@H]([C@@H](C)O)NC(=O)[C@H](NC(C)=O)CCSSCC[C@H](C(N)=O)NC1=O` at or over 30 in terms of Ratio EC50?
Reply: 0

Ask: Okay, and `CC[C@H](C)[C@@H]1NC(=O)[C@@H]2CCCN2C(=O)[C@H](Cc2c[nH]c3ccccc23)NC(=O)[C@H](CCCNC(=N)N)N(C)C(=O)[C@H](Cc2ccccc2)NC(=O)[C@H](Cc2cnc[nH]2)NC(=O)[C@H]([C@@H](C)O)NC(=O)[C@H](NC(C)=O)CCSCc2ccccc2CSCC[C@H](C(N)=O)NC1=O` ?
Reply: 1
